Reference source: the supplement of paper PMC10567573

B1: VTI1B (parent)
chain: ANETLAEMEEELRYAPLSFRNPMM

Variants of: B1
Experimental Details: protein stability index of a GFP-peptide fusion (GPS, HEK-293T) (PSI 1-6); higher = more stable;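 also: lentivirally expressed fusions sorted by FACS into six bins by GFP to DsRed ratio, PSI derived from sequencing read proportions per bin multiplied by bin number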
Conditions: c terminus: a fixed tail appended
Respond with label 1 for protein stability index values of 3 and above, label 0 for values below.

As a guide, the following entries are already answered.
M23T
label 1
L12C
label 1
E3C
label 0
E3K
label 0
P22H
label 1

[ask] Entry `P16Q` : is its protein stability index no less than 3?
[reply] label 0

[ask] Can you check `N21T` next?
[reply] label 1

[ask] Can you check `A6D` next?
[reply] label 1

[ask] Can you check `R13Q` next?
[reply] label 0

[ask] Can you check `E9F` next?
[reply] label 0

[ask] Can you check `N2H` next?
[reply] label 0
